# MEASUREMENT_PROTOCOL: protein stability index of a GFP-peptide fusion (yeast GPS) (PSI 1-4); higher = more stable; sorted into four equal gates, so the index is relative within each strain
# SETTINGS: san1∆
For each record, write down the corresponding protein stability index.
API doc: respond with a numeric literal and nothing else, no unit.

(Q) Can you look up the measured protein stability index of QNYRLDGRSFDQFRDVE [RRP45] for me?
(A) 3.34

(Q) Suppose we examine the sequence MDDEEWRSKRIEQLFPV [RPC53] ; what protein stability index value has been reported?
(A) 2.89

(Q) # lookup: protein stability index of IQFLTIGAGVPSLEVAS [FAS1]
(A) 1.2

(Q) Name the recorded protein stability index for NFLDNCLFENDLQRLKP [ITC1] .
(A) 2.94

(Q) For KLKQQSSTDIPSYTHVL [RRI1] , what is its reported protein stability index?
(A) 2.52

(Q) Which value of protein stability index has been reported for VALTGLLIRSKTEDPKG [YML031W/NDC1] in the records?
(A) 1.73

(Q) Which protein stability index value is on record for TKIAQSQTMAETYVASY [ECM29] ?
(A) 2.27

(Q) Need protein stability index, item TSIHSTISILAAPSGNY [RRP43]
(A) 1.97

(Q) Which protein stability index is listed for YQWNLDGLQQLDKYLYV [RPN1] ?
(A) 2.49

(Q) So what does the record say about protein stability index for RQLANLIPFIVKQVLLS [NUT1] ?
(A) 1.59

(Q) If you can, please state the reported protein stability index value of TRVHQLMLEDAVTEREV [MCD1] .
(A) 2.36

(Q) Return reported protein stability index; argument: KVSKNSTSFKNPRRLEI [YMR153W/NUP53]
(A) 2.88

(Q) Please report the recorded protein stability index for IDKITDGLGNVVDFTSL [YMR129W/POM152] .
(A) 3.37

(Q) Look up protein stability index: KIKQYERLRFYKDTFTL [RRI1]
(A) 2.4

---

# MEASUREMENT_PROTOCOL: protein stability index of a GFP-peptide fusion (yeast GPS) (PSI 1-4); higher = more stable; sorted into four equal gates, so the index is relative within each strain
# SETTINGS: san1∆
Kindly return 1 if reported protein stability index is no lower than 3; return -1 if it is lower.

(Q) Determine whether this sequence has protein stability index no lower than 3: SGTDGSTIGILLLTIQL [SRP72]
(A) 1

(Q) Hi team, for SYYSREQDALFITRLAQ [RPN1] , is the recorded protein stability index at or above 3?
(A) -1

(Q) In plain terms: is recorded protein stability index at least 3 for RKTWKRQNTLSLWRYRK [RPL15A] ?
(A) 1

(Q) State whether the measured protein stability index reaches 3, counting equality as reaching it, for NFKKFNERRKDLAERAS [SMC3]
(A) -1

(Q) Quick check: does KNGTIVKKAVTVHSKSR [RPL19A] have protein stability index greater than or equal to 3?
(A) -1

(Q) Does the reported protein stability index for NFEKPKNSSQLLNEWSH [RPN5] fall at or above the 3 mark?
(A) -1

(Q) Hello, I need to know if QQQQQQNGQQPPTTSNL [YML103C/NUP188] has measured protein stability index not below 3. Thanks!
(A) -1

(Q) Is protein stability index for NDQVEKDAEDETSSDGS [RPN1] at or above 3?
(A) -1

(Q) Exam item: decide whether the reported protein stability index for YLKHNSIAEEIPIAIVL [RET1] is at least 3.
(A) -1

(Q) Given the entry KKWPQFYAAVQKNYADP [SIN4] , answer whether its protein stability index meets or surpasses 3.
(A) -1

(Q) Exam item: decide whether the reported protein stability index for LVHDVVYDFYGRHVATC [YGL100W/SEH1] is at least 3.
(A) -1

(Q) Please tell me: is the sequence AKILSQAPTELELQVAQ [RPS7A] at or over 3 in terms of protein stability index?
(A) -1

(Q) Dear colleague, could you confirm whether DAITVKDVKAWAGKRLW [COR1] has protein stability index at or above 3?
(A) -1

(Q) Could you verify whether the entry LPGELAKHAVSEGTRAV [HTB1] shows protein stability index of no less than 3?
(A) 1

(Q) Say whether RRGTALGIKKEKRIQYA [RPB2] shows protein stability index of 3 or more.
(A) -1

(Q) Given NQQQPPQDILSKLYLLL [SNF11] , state whether its protein stability index is at least 3.
(A) -1

(Q) Item EKIAAGYMQKPVYATIG [PRP28] with protein stability index of 3 or above?
(A) -1

(Q) Is the recorded value of protein stability index equal to or greater than 3 for this sequence? TVLESLGRLNKLRKIAI [LIN1]
(A) -1

(Q) Is protein stability index for LISGPRNQILVSITDAP [YMR129W/POM152] at or above 3?
(A) -1

(Q) Reported protein stability index reaches at least 3 for EKAKSAGVQGSKVSKQQ [RPL24B] ?
(A) 1

(Q) Confirm if protein stability index reported for the sequence NTLLVTGPFKVNGVPLR [RPL6B] is 3 or above.
(A) -1

(Q) Confirm if protein stability index reported for the sequence RKNRYVILQSDLEEAYA [RPT3] is 3 or above.
(A) -1

(Q) Entry AQDEEIHKQIVIEMKRC [UBP6] : is its protein stability index no less than 3?
(A) 1

(Q) Decide: protein stability index of VPKEGLFYFDSSFRPCP [BRR2] >= 3?
(A) 1

---

# MEASUREMENT_PROTOCOL: protein stability index of a GFP-peptide fusion (yeast GPS) (PSI 1-4); higher = more stable; sorted into four equal gates, so the index is relative within each strain
# SETTINGS: doa10∆
Classification field: True = protein stability index at or over 3; False = protein stability index under 3.

(Q) Please tell me: is the sequence VMRNTYNTRKNAVTAAA [GAL11] at or over 3 in terms of protein stability index?
(A) False

(Q) Does the sequence ETELFEPGVLNTGDGSI [ECM29] have recorded protein stability index that is 3 or more?
(A) True

(Q) Quick check: does QMTWRQWLNNALKRSYG [POP8] have protein stability index greater than or equal to 3?
(A) False

(Q) Does the sequence NELLEMVGLASGNDSMA [BRR2] have recorded protein stability index that is 3 or more?
(A) False

(Q) Tell me whether protein stability index is at least 3 here: LKENAGSLTFLDNKGSG [YIL149C/MLP2]
(A) True

(Q) # check: protein stability index of RKNDNANDHDESIDVDM [SMC3] is greater than or equal to 3
(A) False

(Q) Given MTTPQNISSSQQLLPAP [DSN1] , state whether its protein stability index is at least 3.
(A) False

(Q) API: above_or_equal(metric=protein stability index, cutoff=3) for item LIPASDLSWSKQTDTGI [PRP8]
(A) False

(Q) Say whether RLAKSTENEIPNLIEKM [BRR2] shows protein stability index of 3 or more.
(A) False

(Q) // inclusive: protein stability index at least 3? input: KLLQLFLTPMDSIDLAP [YML103C/NUP188]
(A) False

(Q) protein stability index >= 3 for ESLREIPYGPDFDNIEF [SEC65] ?
(A) True

(Q) API: above_or_equal(metric=protein stability index, cutoff=3) for item TQLQRGGTSDMNYLLDN [CSI1]
(A) False

(Q) API: above_or_equal(metric=protein stability index, cutoff=3) for item SIHAHGSTDVGYYLSLG [PUP1]
(A) False

(Q) Threshold query (protein stability index >= 3) on KNSFQQALQMKAMDIPI [SWP82]
(A) False

(Q) Does the sequence QENKNIDDENITKLNKE [SRB4] have recorded protein stability index that is 3 or more?
(A) True

(Q) Given the entry GSYIDKKCPFTGLVSIR [RPS11A] , answer whether its protein stability index meets or surpasses 3.
(A) False

(Q) Quick check: does DAIIPFAAIPEQGIELE [FAS2] have protein stability index greater than or equal to 3?
(A) True

(Q) Kindly determine if protein stability index recorded for DLSADKPTSPFIDSICK [SRB8] is above or exactly 3.
(A) False

(Q) Does RADTDLAMNDDDFLSKK [SNF2] have a reported protein stability index of at least 3?
(A) True

(Q) Has NMLLDPAANESEVANNG [RRP42] a recorded protein stability index greater than or equal to 3?
(A) False

(Q) Assess whether reported protein stability index for EAPAGNIDTITDAMTES [MCD1] sits at 3 or higher.
(A) False

(Q) Check the entry EAVELVIGLDSEHDKKR [YML103C/NUP188] : does protein stability index equal or exceed 3?
(A) False

(Q) Identify whether the reported protein stability index of the following sequence is 3 or greater: TLRPRQYATVSKTHKTV [RPL34A]
(A) False

(Q) Can YISNLLYGVTICYNKKT [REC8] be said to have protein stability index at or above 3?
(A) False

(Q) Quick check: does EKIKKINYHQYISKAQN [SSN2] have protein stability index greater than or equal to 3?
(A) False

(Q) Entry ILNFLNQEDLFELVHHF [YML103C/NUP188] : is its protein stability index no less than 3?
(A) False

(Q) Kindly determine if protein stability index recorded for KILMYQYNIPPEREVLV [RRP6] is above or exactly 3.
(A) False

(Q) Check if protein stability index >= 3 (inclusive). Item: NTNTENENRNTGAGVDV [SNF11]
(A) False
